Study target: T1, cyno FcRn/b2M (cyno, UniProt Q8SPV9 24-297; Q8SPW0 21-119, biotinylated)
T1 construct: bought recombinant biotinylated protein (Immunitrack ITF05 or ACRO FCM-C82W5); also called cFcRn; cFcRn/cb2M
T1 sequence (Q8SPV9 24-297 limits assumed, chain 1 of 2): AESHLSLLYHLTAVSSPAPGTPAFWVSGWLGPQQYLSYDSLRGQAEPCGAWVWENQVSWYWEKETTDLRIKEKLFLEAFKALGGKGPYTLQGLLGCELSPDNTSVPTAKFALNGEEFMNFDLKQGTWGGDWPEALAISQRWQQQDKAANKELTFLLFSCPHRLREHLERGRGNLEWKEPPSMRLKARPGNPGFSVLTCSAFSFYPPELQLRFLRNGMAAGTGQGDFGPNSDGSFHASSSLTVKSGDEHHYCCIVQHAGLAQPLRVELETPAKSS
T1 sequence (Q8SPW0 21-119 limits assumed, chain 2 of 2): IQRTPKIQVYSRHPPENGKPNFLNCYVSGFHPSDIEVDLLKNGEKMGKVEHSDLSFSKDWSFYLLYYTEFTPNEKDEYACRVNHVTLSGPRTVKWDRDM
Protocol notes: SPR pH 6.0;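 also: surface plasmon resonance kinetics at 25 °C, diluted periplasmic extracts injected over immobilized ligand surfaces, 120 s association then 600–3600 s dissociation, running buffer containing 150 mM NaCl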
For each entry below, report its koff value.
Expressed in s⁻¹, but write only the number.

Enquiry: Param item = T0263018B11 S56V (VHH, name in Kabat numbering, FLAG3-His6 tagged) VHH: EVQLVESGGGVVQPGGSLRLSCAASGFTFSSYAMYWVRQAPGKGLEWVSAISSGGGVTDYADSVKGRFTISRDNSKNTLYLQMNSLRPEDTALYYCAADTLYTSLTWYSYWGQGTLVTVSS ; retrieve measured koff.
Return: 0.001

Enquiry: Moving on to the next binder: T0263018B11 G26N (VHH, name in Kabat numbering, FLAG3-His6 tagged) VHH: EVQLVESGGGVVQPGGSLRLSCAASNFTFSSYAMYWVRQAPGKGLEWVSAISSGGGSTDYADSVKGRFTISRDNSKNTLYLQMNSLRPEDTALYYCAADTLYTSLTWYSYWGQGTLVTVSS
Return: 0.00037

Enquiry: Moving on to the next binder: T0263018B11 S52R (VHH, name in Kabat numbering, FLAG3-His6 tagged) VHH: EVQLVESGGGVVQPGGSLRLSCAASGFTFSSYAMYWVRQAPGKGLEWVSAIRSGGGSTDYADSVKGRFTISRDNSKNTLYLQMNSLRPEDTALYYCAADTLYTSLTWYSYWGQGTLVTVSS
Return: 0.016

Enquiry: Moving on to the next binder: T0263018B11 S52aN (VHH, name in Kabat numbering, FLAG3-His6 tagged) VHH: EVQLVESGGGVVQPGGSLRLSCAASGFTFSSYAMYWVRQAPGKGLEWVSAISNGGGSTDYADSVKGRFTISRDNSKNTLYLQMNSLRPEDTALYYCAADTLYTSLTWYSYWGQGTLVTVSS
Return: 0.00079
